Values from patent US9469650B2

- Tested on: OVCAR-3
- Test summary: panel of 60 human tumor cell lines, growth inhibition (Ovarian Cancer)
- Stated conditions: OVCAR-3; Log10 Concentration −6.0
// reported Percent Growth for each item listed
// return numeric value only (unit: %, not printed)

>  <Compound>
C=C1C(=O)O[C@H]2[C@H]1CC/C(COC(=O)OC)=C\CC[C@@]1(C)O[C@@H]21 [JVM 2-40]

>  <Target under test>
OVCAR-3

>  <Percent Growth (%)>
88

$$$$
>  <Compound>
C=C1C(=O)O[C@H]2[C@H]1CC/C(COC(=O)N1CCC(F)(F)CC1)=C\CC[C@@]1(C)O[C@@H]21 [JVM 2-66]

>  <Target under test>
OVCAR-3

>  <Percent Growth (%)>
80

$$$$
>  <Compound>
C=C1C(=O)O[C@H]2[C@H]1CC/C(COC(=O)CCC(=O)N1CCC(C)CC1)=C\CC[C@@]1(C)O[C@@H]21 [JVM 2-70]

>  <Target under test>
OVCAR-3

>  <Percent Growth (%)>
88

$$$$

Exercise: Read off the recorded Percent Growth for C=C1C(=O)O[C@H]2[C@H]1CC/C(COC(=O)OCCN(C)C)=C\CC[C@@]1(C)O[C@@H]21 [JVM 2-35]
Solution: 97
